- system under test: SIX1-Q177R homeodomain (human, UniProt Q15475 108-198, Q177R)
- Sequence: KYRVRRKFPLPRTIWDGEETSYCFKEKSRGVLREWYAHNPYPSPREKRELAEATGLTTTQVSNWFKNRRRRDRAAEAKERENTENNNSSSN
- experiment: universal protein binding microarray; Universal all-10-mer PBM (8x60K, AMADID 030236), 300 nM GST-tagged protein, Alexa Fluor 488 anti-GST; buffer, salt, pH and temperature not stated (as in Berger); high values mean tight binding
- settings: protein: ivt; tags: N-terminal GST; dsDNA, one strand shown
The full ranking holds about 33,000 sequences; the median of “e-score” is about -0.05, and the highest 2% start at about 0.38. For the sample, the highest values were picked, then their nearest neighbours and some sequences at random.
Measured binding signal values are reported for all entries that follow.
Numeric only. Scale: E-score

>  <residue string>
CTCGTGTC

>  <unit of measure>
E-score

>  <binding signal>
0.409

$$$$

Reported binding signal ( GCACCCTA ) = 0.226
